Tested on: T1, P7bHq
T1 chain: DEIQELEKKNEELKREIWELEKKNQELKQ
Assay name: two-hybrid library CCNG1;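 also: natural log of median RNA to DNA barcode read ratio; higher means stronger binding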
Parameter interaction score: see the listing below.
Measurement label: interaction score

Binder	Assay value
DEIQELEKEIEELERKNWELKKKNQELKQ [P3bHq]	0.482
DKIQELKKKIEELKRENWELEKENQELEQ [P4bHq]	-1.11
DEIQELEKENEELERENWELEKEIQELEQ [P1bHq]	-0.288
DKIQELKKKNEELKRKNWELKKKIQELKQ [P2bHq]	0.668
DENQELEKEIEELEREIWELEKKNQELKQ [P11bHq]	-1.22
DEIQELEKKNEELKREIWELEKKNQELKQ [P7bHq]	-1.98
DKNQELKKENEELERKIWELKKKIQELKQ [P10bHq]	1.54
